biological target: Dual specificity calcium/calmodulin-dependent 3',5'-cyclic nucleotide phosphodiesterase 1A (Homo sapiens, UniProt P54750); assay: Enzyme Assay: Assay: The following phosphodiesterase enzymes may be used: 3′,5′-cyclic-nucleotide-specific bovine brain phosphodiesterase (Sigma, St. Louis, Mo.) (predominantly PDE1B) and recombinant full length human PDE1A and PDE1B (r-hPDE1A and r-hPDE1B respectively) which may be produced e.g., in HEK or SF9 cells by one skilled in the art. The PDE1 enzyme is reconstituted with 50% glycerol to 2.5 U/ml. One unit of enzyme will hydrolyze 1.0 μmole of 3′,5′-cAMP to 5′-AMP per min at pH 7.5 at 30° C. One part enzyme is added to 1999 parts reaction buffer (30 μM CaCl2, 10 U/ml of calmodulin (Sigma P2277), 10 mM Tris-HCl pH 7.2, 10 mM MgCl2, 0.1% BSA, 0.05% NaN3) to yield a final concentration of 1.25 mU/ml. 99 μl of diluted enzyme solution is added into each well in a flat bottom 96-well polystyrene plate to which 1 μl of test compound dissolved in 100% DMSO is added. The compounds are mixed and pre-incubated with the enzyme for 10 min at room temperature.
Sequence (P54750 whole entry): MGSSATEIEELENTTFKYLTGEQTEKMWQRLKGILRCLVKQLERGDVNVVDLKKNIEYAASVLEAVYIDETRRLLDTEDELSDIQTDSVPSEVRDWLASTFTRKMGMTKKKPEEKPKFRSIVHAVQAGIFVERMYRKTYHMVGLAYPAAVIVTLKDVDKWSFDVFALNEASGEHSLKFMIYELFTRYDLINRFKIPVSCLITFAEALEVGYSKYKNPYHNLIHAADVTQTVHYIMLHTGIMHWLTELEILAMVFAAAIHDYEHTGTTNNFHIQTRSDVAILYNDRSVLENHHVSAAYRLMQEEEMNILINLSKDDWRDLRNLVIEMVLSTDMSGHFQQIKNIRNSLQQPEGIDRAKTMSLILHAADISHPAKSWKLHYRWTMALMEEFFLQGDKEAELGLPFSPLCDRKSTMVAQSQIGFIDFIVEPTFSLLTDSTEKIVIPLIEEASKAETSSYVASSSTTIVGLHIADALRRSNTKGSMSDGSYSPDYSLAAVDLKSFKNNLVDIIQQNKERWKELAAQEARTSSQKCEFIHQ
measurement_name: IC50
Please answer using a numeric value trailed by its unit.

INPUT: Request the reported IC50 associated with CC(C)Sc1c2c(nn1Cc1ccc(-c3cccc(F)n3)cc1)N1CC(C)(C)N=C1N(C)C2=O
OUTPUT: 5 nM
